FYI, the data here is from the supplement of paper PMC10567573.

B1: SOAT1 (parent)
chain: KSAAMLAVFAVSAVVHEYALAVCL

variants of: B1; test: protein stability index of a GFP-peptide fusion (GPS, HEK-293T) (PSI 1-6); higher = more stable; conditions: c terminus: a fixed tail appended;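 also: lentivirally expressed fusions sorted by FACS into six bins by GFP to DsRed ratio, PSI derived from sequencing read proportions per bin multiplied by bin number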
observable: protein stability index

{"columns": ["variantString", "valueObserved"],
 "data": [
  ["A3H", 3.8],
  ["L6D", 2.74],
  ["S12T", 2.46],
  ["E17N", 2.23],
  ["V14L", 3.6],
  ["M5Q", 3.61],
  ["Y18P", 2.23],
  ["L24F", 2.33],
  ["V11F", 2.89],
  ["A3P", 3.72],
  ["A4K", 2.98],
  ["L20E", 3.95],
  ["A10G", 3.62],
  ["C23V", 2.34],
  ["M5D", 3.48],
  ["M5E", 3.88],
  ["A19L", 3.87],
  ["A4N", 2.2],
  ["A10Q", 3.2],
  ["V14W", 4],
  ["K1A", 3.09],
  ["V15Q", 2.06],
  ["V8T", 3.11],
  ["L6H", 2.73],
  ["K1S", 5.65],
  ["A4M", 2.94],
  ["S2Y", 3.58],
  ["A21I", 1.6],
  ["M5N", 2.5],
  ["A13Q", 5.23],
  ["L6E", 2.25],
  ["H16S", 2.73],
  ["S2L", 2.66],
  ["L6G", 2.94],
  ["V8S", 3.28],
  ["A7Y", 3.49],
  ["M5A", 2.63],
  ["K1D", 4.34],
  ["C23Q", 2.32],
  ["F9V", 1.47],
  ["K1V", 1.84]
]}
